- target: Nociceptin receptor (Homo sapiens, UniProt P41146)
- Sequence (P41146 whole entry): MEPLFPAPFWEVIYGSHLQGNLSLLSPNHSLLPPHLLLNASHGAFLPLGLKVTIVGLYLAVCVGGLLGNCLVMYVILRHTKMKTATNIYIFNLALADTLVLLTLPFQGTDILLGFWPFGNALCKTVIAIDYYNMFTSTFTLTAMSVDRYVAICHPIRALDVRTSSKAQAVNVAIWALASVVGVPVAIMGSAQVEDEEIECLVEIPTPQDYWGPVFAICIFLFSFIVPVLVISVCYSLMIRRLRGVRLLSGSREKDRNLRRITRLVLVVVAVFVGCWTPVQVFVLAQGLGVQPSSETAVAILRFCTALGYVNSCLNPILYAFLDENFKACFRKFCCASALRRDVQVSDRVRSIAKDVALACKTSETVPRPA
- protocolText: Displacement of [125I][Tyr14]nociceptin FQ from human NOP receptor expressed in CHO cell membrane
- Type: cell membranes
- measurementContext: cho
recordedEndpoint: pKi
Please treat pKi as minus the base-10 logarithm of the molar concentration.

Q. Suppose we examine the compound NCc1ccccc1C1(O)CCN(C(c2ccccc2)c2ccccc2)CC1 ; what pKi value has been reported?
A. 8.80

====

- target: Mu-type opioid receptor (Homo sapiens, UniProt P35372)
- Sequence (P35372 whole entry): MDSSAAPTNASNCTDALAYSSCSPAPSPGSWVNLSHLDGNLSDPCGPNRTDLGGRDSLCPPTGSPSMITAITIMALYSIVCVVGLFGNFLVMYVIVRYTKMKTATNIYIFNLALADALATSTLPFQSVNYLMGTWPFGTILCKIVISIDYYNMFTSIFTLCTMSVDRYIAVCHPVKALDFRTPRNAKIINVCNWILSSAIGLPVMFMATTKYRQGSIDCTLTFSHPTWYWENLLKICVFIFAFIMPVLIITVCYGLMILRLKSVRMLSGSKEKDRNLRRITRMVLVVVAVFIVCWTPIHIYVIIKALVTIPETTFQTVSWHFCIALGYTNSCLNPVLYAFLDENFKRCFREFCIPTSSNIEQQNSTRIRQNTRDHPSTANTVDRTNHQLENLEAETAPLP
- protocolText: Displacement of [3H]diprenorphine from human MOP receptor expressed in CHO cell membrane
- Assay type: cell membranes
Sorting guide: entries reporting Ki beneath 900 nM go in the Fulfilled pile, the rest go in the Not fulfilled pile.

Q. # TODO verify Ki < 900 nM strictly for this compound: COc1ccc(C2(O)CCN(C(c3ccccc3)c3ccccc3)CC2)cc1
A. Not fulfilled

Q. Lookup Cc1ccc(C2(O)CCN(C(c3ccccc3)c3ccccc3)CC2)cc1
A. Not fulfilled

Q. Same again, this time with NCc1ccccc1C1(O)CCN(C(c2ccc(Cl)cc2)c2ccc(Cl)cc2)CC1
A. Not fulfilled

Q. And then CCS(=O)(=O)N1CCN(Cc2ccccc2C2(O)CCN(C(c3ccccc3Cl)c3ccccc3Cl)CC2)CC1 , what is it?
A. Fulfilled

Q. // next record Cc1ccc(C(c2ccc(C)cc2)N2CCC(O)(c3ccccc3CN)CC2)cc1
A. Fulfilled

Q. Also need OC1(Cc2ccccc2)CCN(C(c2ccccc2)c2ccccc2)CC1 , thanks.
A. Not fulfilled

Q. For NCc1ccccc1C1(O)CCN(C(c2ccccc2)c2ccccc2Br)CC1 (stereo unspecified) then?
A. Fulfilled

Q. Moving on to the next compound: OC1(c2cccs2)CCN(C(c2ccccc2)c2ccccc2)CC1
A. Not fulfilled

Q. Now give it for OC1(C2CC2)CCN(C(c2ccccc2)c2ccccc2)CC1 too.
A. Not fulfilled

Q. And then CNCc1ccccc1C1(O)CCN(C(c2ccccc2Cl)c2ccccc2Cl)CC1 , what is it?
A. Fulfilled

Q. Do the same for NCc1ccccc1C1(O)CCN(CC2CCCCCC2)CC1 please
A. Fulfilled

====

Hi there, I'd appreciate the recorded pKi for every entry that follows.
- target: Nociceptin receptor (Homo sapiens, UniProt P41146)
- protocolText: Displacement of [125I][Tyr14]nociceptin FQ from human NOP receptor expressed in CHO cell membrane
- Format: cell membranes
// pKi is dimensionless: -log10 of concentration (M)

Q. So what's the measured pKi for this one? CCCCCCC1(O)CCN(C(c2ccccc2)c2ccccc2)CC1
A. 5.94

Q. Next compound up: CCCS(=O)(=O)NCc1ccccc1C1(O)CCN(C(c2ccccc2Cl)c2ccccc2Cl)CC1
A. 7.82

Q. // query: CNCc1ccccc1C1(O)CCN(C(c2ccccc2Cl)c2ccccc2Cl)CC1
A. 9.15

Q. Try this compound too: OC1(c2cccs2)CCN(C(c2ccccc2)c2ccccc2)CC1
A. 7.32

Q. Next entry: CC(C)(C)C1(O)CCN(C(c2ccccc2)c2ccccc2)CC1
A. 7.21

Q. Same lookup for CCc1ccc(C2(O)CCN(C(c3ccccc3)c3ccccc3)CC2)cc1 , please.
A. 5.89

Q. Repeat for the following compound: Cc1ccccc1C1(O)CCN(C(c2ccccc2)c2ccccc2)CC1
A. 7.96

Q. Try the compound NCc1ccccc1C1(O)CCN(CC2CCCCCC2)CC1
A. 8.34

Q. Now this one: N#Cc1ccc(C2(O)CCN(C(c3ccccc3)c3ccccc3)CC2)cc1
A. 5.84

Q. Repeat with OC1(c2ccccc2CN2CCOCC2)CCN(C(c2ccccc2Cl)c2ccccc2Cl)CC1
A. 8.23

Q. Next record, please: CCCCC(c1ccccc1)N1CCC(O)(c2ccccc2CN)CC1 (configuration not stated)
A. 9.40

Q. Entry to check: CCS(=O)(=O)N1CCN(Cc2ccccc2C2(O)CCN(C(c3ccccc3Cl)c3ccccc3Cl)CC2)CC1
A. 9.05

Q. And the next one, OC1(c2ccccn2)CCN(C(c2ccccc2)c2ccccc2)CC1 ?
A. 6.50

Q. Query Cc1ccc(C2(O)CCN(C(c3ccccc3)c3ccccc3)CC2)cc1 next
A. 7.26

Q. Note, next up: OC1(c2ccc(Br)cc2)CCN(C(c2ccccc2)c2ccccc2)CC1
A. 7.29

Q. Queued: CCNC(=O)NCc1ccccc1C1(O)CCN(C(c2ccccc2Cl)c2ccccc2Cl)CC1
A. 7.92

Q. Try the compound NCc1ccccc1C1(O)CCN(Cc2ccccc2)CC1
A. 6.34

====

- target: Mu-type opioid receptor (Homo sapiens)
- protocolText: Displacement of [3H]diprenorphine from human MOP receptor expressed in CHO cell membrane
- Format: cell membranes
recordedEndpoint: pKi
pKi field: float, defined as -log10 of concentration (mol/L).

Q. Can you share its pKi? I mean this compound: OC1(C2CCCCC2)CCN(C(c2ccccc2)c2ccccc2)CC1
A. 6.39

Q. Follow-up entry: CCc1ccc(C2(O)CCN(C(c3ccccc3)c3ccccc3)CC2)cc1
A. 5.46

Q. Another: CCCCC1(O)CCN(C(c2ccccc2)c2ccccc2)CC1
A. 6.57

Q. Cool, now OC1(c2ccco2)CCN(C(c2ccccc2)c2ccccc2)CC1
A. 5.34

Q. Then CCCCCCC1(O)CCN(C(c2ccccc2)c2ccccc2)CC1 ?
A. 5.05

Q. Consider next the compound CC(C)S(=O)(=O)N1CCN(Cc2ccccc2C2(O)CCN(C(c3ccccc3Cl)c3ccccc3Cl)CC2)CC1 in the same way.
A. 6.45

Q. Please give the result for OC1(c2ccccc2CN2CCNCC2)CCN(C(c2ccccc2Cl)c2ccccc2Cl)CC1 too.
A. 6.84

Q. Can you check CC(C)C1(O)CCN(C(c2ccccc2)c2ccccc2)CC1 next?
A. 4.88

Q. Cool, now OC1(c2cccc(F)c2)CCN(C(c2ccccc2)c2ccccc2)CC1
A. 6.15

Q. Also, OC1(CCCc2ccccc2)CCN(C(c2ccccc2)c2ccccc2)CC1 please.
A. 5.47

Q. What do you have for CCCCCC(c1ccccc1)N1CCC(O)(c2ccccc2CN)CC1 (stereo unspecified) ?
A. 8.70

====

Please provide measured Ki for the entries that follow.
- target: Nociceptin receptor (Homo sapiens, UniProt P41146)
- protocolText: Displacement of [125I][Tyr14]nociceptin FQ from human NOP receptor expressed in CHO cell membrane
- Assay type: cell membranes
A bare number is not enough; add the unit after it.

Q. Observed Ki on Nociceptin receptor (Homo sapiens, UniProt P41146) for NCc1ccccc1C1(O)CCN(C(c2ccccc2)c2ccccc2)CC1 , please.
A. 0.0016 µM

Q. Cool, now CCCCc1ccc(C2(O)CCN(C(c3ccccc3)c3ccccc3)CC2)cc1
A. 9.16 µM

Q. And what about the compound CCCCC1(O)CCN(C(c2ccccc2)c2ccccc2)CC1 ?
A. 0.023 µM

Q. Follow-up item: Cc1cccc(C2(O)CCN(C(c3ccccc3)c3ccccc3)CC2)c1
A. 0.027 µM

Q. Consider next the compound OC1(c2ccccc2CN2CCNCC2)CCN(C(c2ccccc2Cl)c2ccccc2Cl)CC1 in the same way.
A. 0.0019 µM

Q. COc1ccc(C2(O)CCN(C(c3ccccc3)c3ccccc3)CC2)cc1 , same question.
A. 0.588 µM

Q. Now consider CC(C)S(=O)(=O)NCc1ccccc1C1(O)CCN(C(c2ccccc2Cl)c2ccccc2Cl)CC1 .
A. 0.0041 µM

Q. Here is the next compound: OCc1ccccc1C1(O)CCN(C(c2ccccc2)c2ccccc2)CC1
A. 0.016 µM

Q. Same for OC1(c2nccs2)CCN(C(c2ccccc2)c2ccccc2)CC1
A. 1.27 µM

Q. Please give the result for Cc1ccc(C(c2ccc(C)cc2)N2CCC(O)(c3ccccc3CN)CC2)cc1 too.
A. 0.11 µM

Q. # iterate: COc1ccccc1C1(O)CCN(C(c2ccccc2)c2ccccc2)CC1
A. 0.085 µM

====

- target: Delta-type opioid receptor (Homo sapiens)
- Sequence (P41143 whole entry): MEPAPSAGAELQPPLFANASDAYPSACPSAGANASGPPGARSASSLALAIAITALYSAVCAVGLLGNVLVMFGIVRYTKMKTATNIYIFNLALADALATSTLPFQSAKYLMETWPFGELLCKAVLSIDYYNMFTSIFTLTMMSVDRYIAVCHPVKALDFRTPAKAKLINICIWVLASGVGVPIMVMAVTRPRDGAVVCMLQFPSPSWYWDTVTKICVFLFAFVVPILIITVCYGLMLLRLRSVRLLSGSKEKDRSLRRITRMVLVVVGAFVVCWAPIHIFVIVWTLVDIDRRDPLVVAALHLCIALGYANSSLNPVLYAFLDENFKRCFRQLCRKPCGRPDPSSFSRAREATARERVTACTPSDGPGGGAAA
- protocolText: Displacement of [3H]diprenorphine from human DOP receptor expressed in CHO cell membrane
- Type: cell membranes
I'd be grateful if you could share measured Ki for these entries.
Numeric answer plus unit only.

Q. // lookup Ki for CCNC(=O)NCc1ccccc1C1(O)CCN(C(c2ccccc2Cl)c2ccccc2Cl)CC1
A. 2.44 µM

Q. Query CC(C)C1(O)CCN(C(c2ccccc2)c2ccccc2)CC1 next
A. 52.8 µM

Q. Then NCc1ccccc1C1(O)CCN(C(c2cccc(F)c2)c2cccc(F)c2)CC1 ?
A. 9.38 µM

Q. Field entry: Cc1ccccc1C(c1ccccc1C)N1CCC(O)(c2ccccc2CN)CC1
A. 8.44 µM

Q. Do the same for OC1(c2ccc(Cl)cc2)CCN(C(c2ccccc2)c2ccccc2)CC1 please
A. 6.36 µM

Q. Continue with CC(C)(C)C1(O)CCN(C(c2ccccc2)c2ccccc2)CC1
A. 56.6 µM

Q. And what about the molecule NCc1ccccc1C1(O)CCN(C(c2ccccc2)c2ccccc2)CC1 ?
A. 13.9 µM

Q. Field entry: OC1(C2CC2)CCN(C(c2ccccc2)c2ccccc2)CC1
A. 131 µM

Q. Again, but for Cc1ccccc1C(c1ccccc1)N1CCC(O)(c2ccccc2CN)CC1 (configuration not stated)
A. 2.87 µM

Q. Can you check OC1(c2cccc(F)c2)CCN(C(c2ccccc2)c2ccccc2)CC1 next?
A. 5.61 µM

Q. Next entry: NCc1ccccc1C1(O)CCN(C(c2ccc(Cl)cc2)c2ccc(Cl)cc2)CC1
A. 3.99 µM

Q. Also check OCc1ccccc1C1(O)CCN(C(c2ccccc2)c2ccccc2)CC1
A. 4.36 µM

Q. Subsequent entry: NCc1ccccc1C1(O)CCN(C(c2ccccc2Cl)c2ccccc2Cl)CC1
A. 3 µM

Q. Cool, now CCCS(=O)(=O)NCc1ccccc1C1(O)CCN(C(c2ccccc2Cl)c2ccccc2Cl)CC1
A. 0.777 µM

Q. Next molecule up: Cc1ccc(C2(O)CCN(C(c3ccccc3)c3ccccc3)CC2)cc1
A. 12.1 µM

Q. Entry CN1CCN(Cc2ccccc2C2(O)CCN(C(c3ccccc3Cl)c3ccccc3Cl)CC2)CC1 please
A. 1.7 µM

Q. Next: OC1(c2cccs2)CCN(C(c2ccccc2)c2ccccc2)CC1
A. 8.45 µM

Q. Field entry: COc1ccc(C2(O)CCN(C(c3ccccc3)c3ccccc3)CC2)cc1
A. 19.2 µM

Q. Ok, now Cc1ccsc1C1(O)CCN(C(c2ccccc2)c2ccccc2)CC1
A. 8.88 µM

Q. Also, CCc1ccc(C2(O)CCN(C(c3ccccc3)c3ccccc3)CC2)cc1 please.
A. 24.9 µM

Q. // query: NCc1ccccc1C1(O)CCN(C(c2ccccc2)c2ccccc2Cl)CC1 (configuration not stated)
A. 3.7 µM

Q. Same lookup for CC(C)S(=O)(=O)NCc1ccccc1C1(O)CCN(C(c2ccccc2Cl)c2ccccc2Cl)CC1 , please.
A. 0.518 µM

Q. Here is the next molecule: OC1(c2ccccc2F)CCN(C(c2ccccc2)c2ccccc2)CC1
A. 5.61 µM

Q. Follow-up item: CCS(=O)(=O)N1CCN(Cc2ccccc2C2(O)CCN(C(c3ccccc3Cl)c3ccccc3Cl)CC2)CC1
A. 1.59 µM

Q. Also, OC1(c2ccccn2)CCN(C(c2ccccc2)c2ccccc2)CC1 please.
A. 45.6 µM

Q. Can you handle NCc1ccccc1C1(O)CCN(C(c2ccccc2Br)c2ccccc2Br)CC1 next?
A. 3.2 µM

Q. And then OC1(c2ccco2)CCN(C(c2ccccc2)c2ccccc2)CC1 , what is it?
A. 14.5 µM

Q. Query CC1(C)CCC(N2CCC(O)(c3ccccc3CN)CC2)c2ccccc21 (configuration not stated) next
A. 23.4 µM

Q. Then this molecule: OC1(c2ccc(Br)cc2)CCN(C(c2ccccc2)c2ccccc2)CC1
A. 15.2 µM

Q. Similarly, CCCCCC(c1ccccc1)N1CCC(O)(c2ccccc2CN)CC1 (configuration not stated) ?
A. 0.606 µM

Q. Same again, this time with NCc1ccccc1C1(O)CCN(C(c2ccccc2)c2ccccc2Br)CC1 (configuration not stated)
A. 3.29 µM

Q. Further, for OC1(c2ccccc2CN2CCNCC2)CCN(C(c2ccccc2Cl)c2ccccc2Cl)CC1 ?
A. 1.17 µM

Q. Queued: OC1(c2ccc(F)cc2)CCN(C(c2ccccc2)c2ccccc2)CC1
A. 3.32 µM

Q. Cc1ccccc1C1(O)CCN(C(c2ccccc2)c2ccccc2)CC1 ?
A. 1.67 µM

Q. Again, but for Cc1ccc(C(c2ccc(C)cc2)N2CCC(O)(c3ccccc3CN)CC2)cc1
A. 8.9 µM

Q. Could you do the same for OC1(Cc2ccccc2)CCN(C(c2ccccc2)c2ccccc2)CC1 , please?
A. 15 µM

Q. What about NCc1ccccc1C1(O)CCN(CC2CCCCCC2)CC1 ?
A. 99.5 µM

Q. Now the same for Cc1cccc(C2(O)CCN(C(c3ccccc3)c3ccccc3)CC2)c1
A. 7.8 µM

Q. Next molecule: OC1(C2CCCCC2)CCN(C(c2ccccc2)c2ccccc2)CC1
A. 8.11 µM

Q. Request: COc1cccc(C2(O)CCN(C(c3ccccc3)c3ccccc3)CC2)c1
A. 9.59 µM

Q. Same again, this time with NCc1ccccc1C1(O)CCN(C(c2ccccc2F)c2ccccc2F)CC1
A. 3.7 µM

Q. Query OC1(CCCc2ccccc2)CCN(C(c2ccccc2)c2ccccc2)CC1 next
A. 13.8 µM
